study-system: FGFR1 kinase (Homo sapiens, UniProt P11362)
Sequence (P11362 22-822): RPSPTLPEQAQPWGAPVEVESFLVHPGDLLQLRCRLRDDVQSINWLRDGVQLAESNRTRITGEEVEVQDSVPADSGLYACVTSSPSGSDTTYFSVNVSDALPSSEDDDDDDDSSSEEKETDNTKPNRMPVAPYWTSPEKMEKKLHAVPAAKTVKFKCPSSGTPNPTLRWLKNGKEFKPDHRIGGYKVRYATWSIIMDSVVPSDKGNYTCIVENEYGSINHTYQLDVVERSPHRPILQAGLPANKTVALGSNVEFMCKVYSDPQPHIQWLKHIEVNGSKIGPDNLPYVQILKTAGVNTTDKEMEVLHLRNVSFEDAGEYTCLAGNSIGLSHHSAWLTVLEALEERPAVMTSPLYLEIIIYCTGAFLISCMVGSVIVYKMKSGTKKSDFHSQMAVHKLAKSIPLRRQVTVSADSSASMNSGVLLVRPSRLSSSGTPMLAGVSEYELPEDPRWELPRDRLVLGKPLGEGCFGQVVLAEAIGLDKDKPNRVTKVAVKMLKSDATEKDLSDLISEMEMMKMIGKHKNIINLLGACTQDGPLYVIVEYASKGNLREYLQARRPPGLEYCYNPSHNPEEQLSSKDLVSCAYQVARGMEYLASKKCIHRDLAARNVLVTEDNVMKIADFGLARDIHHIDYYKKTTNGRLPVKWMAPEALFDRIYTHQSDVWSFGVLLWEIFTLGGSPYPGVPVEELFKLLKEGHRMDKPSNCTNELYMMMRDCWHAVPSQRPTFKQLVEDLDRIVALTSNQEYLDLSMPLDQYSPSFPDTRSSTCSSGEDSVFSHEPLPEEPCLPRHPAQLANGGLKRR
test: Kinase assay (using Caliper technology)
Type: biochemical
test-parameters: FGFR1 kinase, Caliper; upper bound of bin; read-out: IC50
Where a name gives a salt, the structure may show the parent alone.
assay-readout: IC50

Examples with answers:
compound	study-system	assay-readout	result-value
COc1cc(CCc2cc(Nc3ccnc(NCc4cc(CN(C)C)no4)n3)n[nH]2)c(F)cn1 [Example 136]	FGFR1 kinase (Homo sapiens, UniProt P11362)	IC50	< 1000 nM
Cc1cc(CNc2nccc(Nc3cc(CCC4CCOC4)[nH]n3)n2)on1 (stereo not shown) [Example 109]	FGFR1 kinase (Homo sapiens, UniProt P11362)	IC50	< 1000 nM
COc1ccnc(COc2cc(Nc3ccnc(NCc4cc(C)no4)n3)n[nH]2)c1 [Example 137]	FGFR1 kinase (Homo sapiens, UniProt P11362)	IC50	< 1000 nM

Find IC50 (FGFR1 kinase (Homo sapiens, UniProt P11362)) for the entry COc1cc(COc2cc(Nc3ccnc(NCc4cc(C)no4)n3)n[nH]2)ccc1F [Example 100, hydrochloride]
< 10000 nM
